Recorded pIC50 by entry
biological target: Fatty-acid amide hydrolase 1 (Homo sapiens, UniProt O00519); assay: Inhibition of FAAH in human U937 cells using [ethanolamine-1-3H]AEA as substrate after 15 mins by liquid scintillation counting method; assay type: cell-based
Sequence (O00519 whole entry): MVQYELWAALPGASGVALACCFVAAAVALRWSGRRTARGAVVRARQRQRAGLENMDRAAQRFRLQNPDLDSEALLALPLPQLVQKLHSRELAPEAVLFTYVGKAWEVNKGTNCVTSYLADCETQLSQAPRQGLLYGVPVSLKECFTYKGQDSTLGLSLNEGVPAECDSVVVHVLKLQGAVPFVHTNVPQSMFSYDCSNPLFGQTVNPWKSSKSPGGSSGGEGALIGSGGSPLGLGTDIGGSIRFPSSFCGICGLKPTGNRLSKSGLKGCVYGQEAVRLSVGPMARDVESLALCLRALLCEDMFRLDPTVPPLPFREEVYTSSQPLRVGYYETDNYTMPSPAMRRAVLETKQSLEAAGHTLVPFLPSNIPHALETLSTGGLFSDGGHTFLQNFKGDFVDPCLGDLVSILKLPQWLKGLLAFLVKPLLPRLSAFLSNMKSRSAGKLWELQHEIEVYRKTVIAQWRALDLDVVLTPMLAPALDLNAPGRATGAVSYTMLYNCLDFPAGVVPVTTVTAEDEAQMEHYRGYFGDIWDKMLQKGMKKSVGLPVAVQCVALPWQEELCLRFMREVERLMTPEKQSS
pIC50: −log10 of the molar value.

CCCCCCCC(=O)c1c(O)c(-c2ccc(O)cc2)c[nH]c1=O    < 5.00

Look at this compound and give its reported pIC50. "CCCCCCCCCCOC(=O)c1c(O)c(-c2ccc(O)cc2)c[nH]c1=O" < 5.00

Which measured pIC50 value corresponds to CCC(C)/C=C(C)/C=C/C=C/C=C/C(=O)c1c(O)c(-c2ccc(O)cc2)c[nH]c1=O (stereo not given) [FARINOSONE A] ? < 5.00

Entry under review: "CCCCCCCCCCCCCCCCCC(=O)c1c(O)c(-c2ccc(O)cc2)c[nH]c1=O" . Reported pIC50? < 5.00

Find the recorded pIC50 belonging to "CCCCCCCCCCCC(=O)c1c(O)c(-c2ccc(O)cc2)c[nH]c1=O" and report it. 5.34

----------
Each entry below lists one item and its recorded inhibition value.
target: Fatty-acid amide hydrolase 1 (Homo sapiens); experiment: Inhibition of FAAH in human U937 cells using [ethanolamine-1-3H]AEA as substrate at 10 uM after 15 mins by liquid scintillation counting method relative to control; type: cell-based

CCCCCCCCCCOC(=O)c1c(O)c(-c2ccc(O)cc2)c[nH]c1=O    40 to 50%

So what inhibition did "CCCCCCCC(=O)c1c(O)c(-c2ccc(O)cc2)c[nH]c1=O" get with Fatty-acid amide hydrolase 1 (Homo sapiens)? 80%

// fetch Fatty-acid amide hydrolase 1 (Homo sapiens) inhibition for CCC(C)CC(C)/C=C(C)/C=C/C=C/C(=O)c1c(O)c(-c2ccc(O)cc2)c[nH]c1=O (centres undefined) 40 to 50%

Test system Fatty-acid amide hydrolase 1 (Homo sapiens); read-out inhibition; what value for "CCCCCCCCCCCC(=O)c1c(O)c(-c2ccc(O)cc2)c[nH]c1=O" ? 40 to 50%

----------
Target: Lysophosphatidylserine lipase ABHD12 (Mus musculus) (UniProt Q99LR1)
Sequence (whole entry): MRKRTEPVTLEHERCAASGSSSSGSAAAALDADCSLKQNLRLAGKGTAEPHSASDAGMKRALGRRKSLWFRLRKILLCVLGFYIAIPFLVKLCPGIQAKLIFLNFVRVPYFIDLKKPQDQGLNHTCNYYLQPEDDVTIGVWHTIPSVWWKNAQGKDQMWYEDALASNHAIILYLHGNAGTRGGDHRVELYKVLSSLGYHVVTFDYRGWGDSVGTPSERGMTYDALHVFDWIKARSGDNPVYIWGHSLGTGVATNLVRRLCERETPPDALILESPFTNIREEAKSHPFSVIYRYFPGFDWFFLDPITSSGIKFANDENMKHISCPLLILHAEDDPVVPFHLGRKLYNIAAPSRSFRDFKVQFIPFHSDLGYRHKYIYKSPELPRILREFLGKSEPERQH
Experiment: Inhibition of ABHD12 in mouse BV2 cells preincubated for 30 mins and subsequent addition of [3H]-2-OG substrate measured after 15 mins by liquid scintillation counting method
Assay type: cell-based
Active and inactive are the calls of the source. The rule behind the calls is not given here.
# output must be one of label 1 (active), label 0 (inactive)

CCC(C)CC(C)/C=C(C)/C=C/C=C/C(=O)c1c(O)c(-c2ccc(O)cc2)c[nH]c1=O (configuration not stated)    label 0
CCC(C)CC(C)/C=C(C)/C=C/C(=O)c1c(O)c(-c2ccc(O)cc2)c[nH]c1=O (configuration not stated)    label 0
CCC(C)/C=C(C)/C=C/C=C/C=C/C(=O)c1c(O)c(-c2ccc(O)cc2)c[nH]c1=O (configuration not stated)    label 0

Tell me the recorded outcome of this test for CCC(/C=C/C=C/C=C/C(=O)c1c(O)c(-c2ccc(O)cc2)c[nH]c1=O)CO (configuration not stated) . label 0

Check the results log: what was the call for "CC[C@@H](C)/C=C(C)/C=C/C(=O)c1c(O)c(-c2ccc(O)cc2)c[nH]c1=O" ? label 0
